Assay: Cellular viability qHTS for adrenocortical cancer (ACC) cell line NCI-H295R (AID 1963990); note: nearly all actives have a fitted effect of over 60% in size
Conditions: CellTiter-Glo ATP luminescence, 48 h; series mostly up to 46.1 µM
From the text: PI: Naris Nilubol, MD Surgical Oncology Program, National Cancer Institute (NCI) National Institute of Health (NIH), Bethesda, Maryland Adrenocortical cancer (ACC) is a rare malignancy with poor survival outcomes and few treatment options. Currently, mitotane is the only FDA-approved therapy for ACC. […] Through a quantitative high-throughput drug screen (qHTS), we identified auranofin (AF), a thioredoxin reductase (TXNRD) inhibitor, as a promising candidate drug. […]
Results filed as inconclusive are left out. Activity calls are given as the source filed them. Calls come from the whole dose curve; as a rule, active = well fitted cell-killing curve with a large enough effect; inconclusive = small, poorly fitted or top-dose-only effect; inactive = flat fitted curve, though single readings scatter.
# output must be one of true (active), false (inactive)

Study these solved cases before continuing.
O=C(O)CCCCC1CCSS1 (centres undefined) | false
CC[N+]1(CC)CCC(=C(c2ccccc2)c2ccccc2)C1C (centres undefined) | false
O=C(Nc1c(Cl)cncc1Cl)c1ccc(OC(F)F)c(OCC2CC2)c1 | false
CN(C)[C@@H]1C(=O)C(C(N)=O)=C(O)[C@@]2(O)C(=O)C3=C(O)c4c(O)cccc4C[C@H]3C[C@@H]12 | false
NC(=O)c1cnccn1 | false

Now turn to the next molecule.
input: Query: recorded result category for CCCCNc1ncc2c(-c3ccc(F)cc3)nn(CC3CCC(N)CC3)c2n1 (centres undefined) in this test
output: true
